- method: in vivo
- setupConditions: Sprague-Dawley, rat, iv, 1 mg/kg
observable: clearance (mL/min/kg)
Answers are plain numbers, in mL/min/kg.

Req: Fill in: clearance of Cc1cn(-c2cc3c(c(CC(C)C)c2)C(=O)NCC3)c2c1C(=O)CC(C)(C)C2 is ___
Resp: 25.7
